In this section, each of the compounds is paired with its reported mortality at 100 µM.
test system: adult worms of S. japonicum (Chinese strain); assay: microbe, parasite or virus in culture; conditions: Schistosoma japonicum, 24 h, read-out: Mortality (%) 24 h, 100 μM, 24 h, adult worms in vitro

CN(NC(=O)c1ccc(Cl)c(Cl)c1)c1ccc(Cl)c(C(F)(F)F)c1 [Compound 14] | 15%
COc1ccc(N(C)NC(=O)c2ccc(Br)cc2)cc1 [Compound 27] | 0%

As a next step, examine the compound that follows.
Form entry - test system: adult worms of S. japonicum (Chinese strain); read-out: mortality at 100 µM; compound: CN(NC(=O)c1ccc(Cl)c(Cl)c1)c1ccc(C#N)cc1 [Compound 6] 0%

----------
tested on: adult worms of S. japonicum (Chinese strain); experiment: microbe, parasite or virus in culture; conditions: Schistosoma japonicum, 48 h, read-out: Mortality (%) 48 h, 100 μM, 48 h, adult worms in vitro
In this section, each of the molecules is paired with its reported mortality at 100 µM.
Please reply with the bare figure in % and do not write the unit itself.

Worked cases, answers included:
CN(NC(=O)c1ccc(Br)cc1)c1ccccc1Cl [Compound 39] | 10
Cc1cccc(N(C)NC(=O)c2ccc(Br)cc2)c1 [Compound 33] | 40
CN(NC(=O)c1ccc(Br)cc1)c1ccccc1F [Compound 38] | 10
CN(NC(=O)c1ccc(Cl)c(Cl)c1)c1cccc(Cl)c1 [Compound 8] | 40
Cc1ccc(N(C)NC(=O)c2ccc(Br)cc2)cc1 [Compound 26] | 10
CN(NC(=O)c1ccc(Br)cc1)c1cccc(C(F)(F)F)c1 [Compound 36] | 10

As a next step, examine the molecule that follows.
If you can, please state the reported mortality at 100 µM value of CN(NC(=O)c1cccc(Cl)c1)c1ccc(Cl)c(Cl)c1 [Compound 23] . 40
